assay: Binding affinity to DNA (unknown origin) assessed as DNA interaction by measuring change in melting temperature
Could you please report measured ΔTm for the items listed next?
Numeric only. Scale: °C

Item COc1cccc2c1C(=O)c1c(O)c3c(c(O)c1C2=O)C[C@@](O)(C(=O)CO)C[C@@H]3O[C@H]1C[C@H](N)[C@H](O)[C@H](C)O1 [DOXORUBICIN] has what recorded ΔTm?
13.6

Item `COc1cccc2c1C(=O)c1c(O)c3c(c(O)c1C2=O)C[C@@](O)(C(C)=O)C[C@@H]3OCCN.Cl` has what recorded ΔTm?
8.2

Item `COc1cccc2c1C(=O)c1c(O)c3c(c(O)c1C2=O)C[C@@](O)(C(C)=O)C[C@@H]3OC(=O)CCN.Cl` has what recorded ΔTm?
1

Item COc1cccc2c1C(=O)c1c(O)c3c(c(O)c1C2=O)C[C@@](O)(C(C)=O)C[C@@H]3O[C@H]1C[C@H](N)[C@H](O)[C@H](C)O1.Cl [DAUNORUBICIN HYDROCHLORIDE] has what recorded ΔTm?
11.2

Item `COc1cccc2c1C(=O)c1c(O)c3c(c(O)c1C2=O)C[C@@](O)(C(C)=O)C[C@@H]3SCCN.Cl` has what recorded ΔTm?
6.3
